# System Tested: PDGFRβ (Homo sapiens, UniProt P09619)
# Construct: purchased Promega
# Sequence (P09619 33-1106): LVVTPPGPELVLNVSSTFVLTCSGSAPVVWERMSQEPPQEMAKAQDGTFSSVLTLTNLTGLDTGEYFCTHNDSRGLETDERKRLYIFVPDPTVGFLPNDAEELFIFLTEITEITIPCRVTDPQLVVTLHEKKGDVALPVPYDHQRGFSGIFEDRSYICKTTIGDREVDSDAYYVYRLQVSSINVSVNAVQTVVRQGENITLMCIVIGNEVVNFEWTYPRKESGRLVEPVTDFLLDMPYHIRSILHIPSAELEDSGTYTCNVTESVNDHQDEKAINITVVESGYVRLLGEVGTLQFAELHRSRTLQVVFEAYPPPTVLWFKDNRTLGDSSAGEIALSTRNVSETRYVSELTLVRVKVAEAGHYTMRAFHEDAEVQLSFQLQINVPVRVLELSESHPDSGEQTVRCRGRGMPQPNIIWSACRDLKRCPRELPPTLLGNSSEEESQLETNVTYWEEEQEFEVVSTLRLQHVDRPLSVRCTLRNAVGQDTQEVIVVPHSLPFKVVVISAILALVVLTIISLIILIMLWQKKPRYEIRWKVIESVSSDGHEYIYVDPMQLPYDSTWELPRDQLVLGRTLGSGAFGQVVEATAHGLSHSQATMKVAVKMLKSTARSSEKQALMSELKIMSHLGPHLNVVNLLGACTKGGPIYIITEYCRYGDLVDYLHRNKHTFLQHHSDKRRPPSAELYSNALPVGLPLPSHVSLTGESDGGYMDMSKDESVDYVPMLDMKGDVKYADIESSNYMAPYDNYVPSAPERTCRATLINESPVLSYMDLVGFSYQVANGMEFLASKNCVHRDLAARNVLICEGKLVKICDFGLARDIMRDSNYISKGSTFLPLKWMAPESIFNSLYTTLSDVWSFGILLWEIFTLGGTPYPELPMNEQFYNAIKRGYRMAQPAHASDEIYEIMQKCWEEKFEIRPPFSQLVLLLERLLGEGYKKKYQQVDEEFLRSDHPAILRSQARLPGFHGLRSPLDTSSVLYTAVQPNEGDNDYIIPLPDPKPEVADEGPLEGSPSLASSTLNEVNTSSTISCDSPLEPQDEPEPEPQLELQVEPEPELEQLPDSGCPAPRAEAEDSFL
# Assay Text: ADP-Glo kinase assay, PDGFRβ
# Assay type: biochemical
inhibition at 10 µM by entry:
Measurement Type: inhibition at 10 µM (%)

INSERT INTO results (compound, measurement_type, measured) VALUES
  ('O=C(Nc1cccc(C(F)(F)F)c1)c1cccc(C(=O)N2CCN(C(=O)c3ccccc3F)CC2)c1', 'inhibition at 10 µM', 0),
  ('COc1ccc(C(=O)N2CCN(C(=O)c3ccc(C(=O)Nc4cccc(C(F)(F)F)c4)cc3)CC2)cc1', 'inhibition at 10 µM', 20),
  ('CNC(=O)c1cc(Oc2ccc(NC(=O)Nc3ccc(Cl)c(C(F)(F)F)c3)cc2)ccn1 [Sorafenib, reference compound]', 'inhibition at 10 µM', 100),
  ('Cc1cn(-c2cc(NC(=O)c3cccc(C(=O)Nc4cccc(C(F)(F)F)c4)c3)cc(C(F)(F)F)c2)cn1', 'inhibition at 10 µM', 18),
  ('Cc1cn(-c2cc(NC(=O)c3cccc(C(=O)Nc4cc(-n5cnc(C)c5)cc(C(F)(F)F)c4)c3)cc(C(F)(F)F)c2)cn1', 'inhibition at 10 µM', 0);

Origin of the recorded values: paper PMC10046946
